# Read-out: CD69, CD69 (gene 969)
# Assay details: BSK_SAg_CD69: BioMAP Diversity Plus: SAg Assay for CD69 Biomarker Activity (AID 2283089)
# Protocol conditions: primary human HUVEC with PBMC; actives raise or lower the signal
Active and inactive are the calls of the source. The calls were made as follows: active = hit-call score of the fitted dose curve at least 0.9, where 1 is the maximum; inactive = score below 0.9.
Outcome codes: active, inactive

O=C(O)c1cccc(N(Cc2cccnc2)c2ccc(OC(F)F)c(OC(F)F)c2)c1	active
CN(C)c1ccc(N=NS(=O)(=O)O)cc1	inactive
CC(C)c1cccc(C(C)C)c1N1C(=O)c2ccc(O)cc2C1=O	active
CNS(=O)(=O)c1cc(C(=O)N2CCC(CCN3C4CCC3CC(n3c(C)nc5ccccc53)C4)(c3cccc(F)c3)CC2)c(Cl)cc1F (centres undefined)	active
CCCN(C1CCN(C(=O)C2CCNCC2)CC1)[C@@H]1CCc2ccc(OC)cc2C1	inactive
C1=CCCC=CCCC=CCC1	inactive
Cc1ccc(S(=O)(=O)O)cc1C	inactive
CCOC(=O)COc1ccc2c(c1)CC(NCC(O)c1cccc(Cl)c1)CC2 (centres undefined)	active
NC(=O)NO	inactive
CC1=CC(=O)CC(C)(C)C1	inactive
CC[C@H](C)C(=O)O[C@H]1C[C@@H](C)C=C2C=C[C@H](C)[C@H](CC[C@@H]3C[C@@H](O)CC(=O)O3)[C@H]21	active
CCCCC(CC)COC(=O)c1ccc(C(=O)OCC(CC)CCCC)cc1 (centres undefined)	inactive
Cn1c(=O)c2c(ncn2C)n(C)c1=O	inactive
CC(C)=CCC/C(C)=C/CO	inactive

---

# Assay details: ATG_Oct_MLP_CIS: Attagene CIS-FACTORIAL HepG2 Assay for human Octamer-Binding Transcription Factor (Oct) (AID 2282993)
# Protocol conditions: HepG2 Attagene cis-factorial Oct reporter, mRNA; actives raise or lower the signal
The source made the active and inactive calls. How the source made its calls: active means hit-call score of the fitted dose curve at least 0.9, where 1 is the maximum; inactive means score below 0.9.
Outcomes: active, inactive

C=CCCCCCCCCC(=O)O	inactive
CCOC(=O)COc1ccc2c(c1)CC(NCC(O)c1cccc(Cl)c1)CC2 (stereo not drawn)	inactive
C1N2CN3CN1CN(C2)C3	inactive
CC(=O)OCCC(C)C	inactive
CC(C)CCCCCCCOC(=O)CCCCC(=O)OCCCCCCCC(C)C	inactive
CC(C)=CCCC(C)=CC=O	inactive
CC1=CC(=O)CC(C)(C)C1	inactive
O=c1n(CC2CO2)c(=O)n(CC2CO2)c(=O)n1CC1CO1 (stereo not drawn)	active
CC(=O)OC[C@H]1O[C@@](COC(C)=O)(O[C@H]2O[C@H](COC(C)=O)[C@@H](OC(C)=O)[C@H](OC(C)=O)[C@H]2OC(C)=O)[C@@H](OC(C)=O)[C@@H]1OC(C)=O	inactive
O=P(OC(CCl)CCl)(OC(CCl)CCl)OC(CCl)CCl	active
COc1ccc(/C=C/S(=O)(=O)NC(=O)c2ccc(C)cc2Cl)cc1	inactive
Cc1ccc(S(=O)(=O)O)cc1C	inactive
CC(C)CCCCCCOC(=O)c1ccc(C(=O)OCCCCCCC(C)C)c(C(=O)OCCCCCCC(C)C)c1	inactive
C=CC(=C)CCC=C(C)C	inactive
Cc1[nH]cnc1C[C@H]1CCc2c(C)c3ccccc3n2C1=O	active
Cc1ccc(C)c(O)c1	inactive
CCOC(=O)c1ccc(C2CCC(NC[C@H](O)COc3ccc(O)c(NS(C)(=O)=O)c3)CC2)cc1 (stereo partly drawn)	active
On1ccccc1=S	inactive
CC1(C)C(=O)N(Br)C(=O)N1Br	inactive
Cn1c(=O)c2c(ncn2C)n(C)c1=O	inactive
CC(=O)c1ccc2c(c1)[C@H](NC(=O)c1ccc(F)cc1)[C@@H](O)C(C)(C)O2	inactive
CN(C)c1ccc(N=NS(=O)(=O)O)cc1	active
CCOCCO	inactive
CC[C@H]1CC[C@H](NCc2cc3c(cc2OC)[C@H]2C[C@H]2C(=O)N3C)[C@H](c2ccccc2)N1	active
Cc1ccc(O)cc1	inactive
COCCOCCOCCOC	inactive
CC(C)CCO	inactive
CCCC(=O)OCC	inactive
CCCCCCCCCCCCc1ccccc1	inactive
Cn1c(=O)cc(Oc2ccc(F)cc2F)c2cnc(NCC(C)(C)O)nc21	inactive
Fc1ccccc1[C@@H](F)COC1CCC(Nc2ncnc3[nH]ncc23)CC1 (stereo partly drawn)	inactive
CC(C)=CCC/C(C)=C/CO	inactive
Oc1ccc2c(c1)-c1ccccc1C2	active
Clc1nc(Cl)c(Cl)c(Cl)c1Cl	inactive
O=C1CCC(N2C(=O)c3ccccc3C2=O)C(=O)N1 (stereo not drawn)	inactive
CC(C)c1cccc(C(C)C)c1N1C(=O)c2ccc(O)cc2C1=O	active
CC[C@H]1OC(=O)[C@H](C)[C@@H](O[C@H]2C[C@@](C)(OC)[C@@H](O)[C@H](C)O2)[C@H](C)[C@@H](O[C@@H]2O[C@H](C)C[C@H](N(C)C)[C@H]2O)[C@](C)(O)C[C@@H](C)C(=O)[C@H](C)[C@@H](O)[C@]1(C)O	inactive
Nc1ccc(Nc2ccccc2)cc1	active

---

# Read-out: Tumor necrosis factor (Homo sapiens) (UniProt P01375)
# Sequence (P01375 whole entry, looked up): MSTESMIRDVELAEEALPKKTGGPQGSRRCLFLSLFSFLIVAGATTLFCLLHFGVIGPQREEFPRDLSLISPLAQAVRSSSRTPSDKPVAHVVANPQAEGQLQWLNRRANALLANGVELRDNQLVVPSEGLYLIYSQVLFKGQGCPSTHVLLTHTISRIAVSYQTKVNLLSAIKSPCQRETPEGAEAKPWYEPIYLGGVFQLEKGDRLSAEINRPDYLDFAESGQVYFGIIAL
# Assay details: BSK_LPS_TNFa: BioMAP Diversity Plus: LPS Assay for Tumour Necrosis Factor alpha (TNFa) Biomarker Activity (AID 2283085)
# Protocol conditions: primary human HUVEC with PBMC; actives raise or lower the signal
Active and inactive are the calls of the source. Rule for the calls: active = hit-call score of the fitted dose curve at least 0.9, where 1 is the maximum; inactive = score below 0.9.
Outcomes: active, inactive

CCNc1ccccc1	inactive
CC(=O)OC[C@H]1O[C@@](COC(C)=O)(O[C@H]2O[C@H](COC(C)=O)[C@@H](OC(C)=O)[C@H](OC(C)=O)[C@H]2OC(C)=O)[C@@H](OC(C)=O)[C@@H]1OC(C)=O	inactive
CCCCCCc1ccc(O)cc1O	active
COC(=O)CC(=O)OC	inactive
On1ccccc1=S	inactive
Cn1c(=O)cc(Oc2ccc(F)cc2F)c2cnc(NCC(C)(C)O)nc21	active
CC1(C)C(=O)N(Br)C(=O)N1Br	inactive
O=C(O)c1cccc(N(Cc2cccnc2)c2ccc(OC(F)F)c(OC(F)F)c2)c1	active
COCCOc1cc2cc(C(=O)NC3CCN(C(C)C)CC3)n(CC(=O)Nc3ccc(Cl)cn3)c2cn1	inactive
Cc1ccc(N)cc1O	inactive
CC1=CC(=O)CC(C)(C)C1	inactive

---

# Read-out: Matrix Metallopeptidase 1 (MMP1), MMP1 (gene 4312)
# Assay details: BSK_BE3C_MMP1: BioMAP Diversity Plus: BE3C Assay for Matrix Metallopeptidase 1 (MMP1) Biomarker Activity (AID 2283024)
# Protocol conditions: primary human bronchial epithelial cells; actives raise or lower the signal
Calls of active or inactive are those of the source. The calls were made as follows: active = hit-call score of the fitted dose curve at least 0.9, where 1 is the maximum; inactive = score below 0.9.
Labels: active, inactive

CN(C)c1ccc(Cc2ccc(N(C)C)cc2)cc1	active
CNCc1ccc(NC(=O)c2c[nH]c3c2C(=O)CCC3)cc1	inactive
Nc1cccc(N)c1	inactive
O=C(OC[C@H]1O[C@@H](OC(=O)c2cc(O)c(O)c(OC(=O)c3cc(O)c(O)c(O)c3)c2)[C@H](OC(=O)c2cc(O)c(O)c(OC(=O)c3cc(O)c(O)c(O)c3)c2)[C@@H](OC(=O)c2cc(O)c(O)c(OC(=O)c3cc(O)c(O)c(O)c3)c2)[C@@H]1OC(=O)c1cc(O)c(O)c(OC(=O)c2cc(O)c(O)c(O)c2)c1)c1cc(O)c(O)c(OC(=O)c2cc(O)c(O)c(O)c2)c1	active
CCc1cc(SCc2sc(-c3ccc(C(F)(F)F)cc3)nc2CN2CCN(c3ccc(OC)cc3)CC2)ccc1OCC(=O)O	active
CC(O)CN(CCN(CC(C)O)CC(C)O)CC(C)O (stereo unspecified)	inactive
CC(C)(O)c1coc(S(=O)(=O)NC(=O)Nc2c3c(cc4c2CCC4)CCC3)c1	inactive
COCCOc1cc2cc(C(=O)NC3CCN(C(C)C)CC3)n(CC(=O)Nc3ccc(Cl)cn3)c2cn1	inactive
CCCC(=O)OCC	inactive
CC(C)CCCCCCCOC(=O)CCCCC(=O)OCCCCCCCC(C)C	inactive
CC(C)CCCCCCOC(=O)c1ccc(C(=O)OCCCCCCC(C)C)c(C(=O)OCCCCCCC(C)C)c1	inactive
Nc1nc2ncc(CNc3ccc(C(=O)N[C@@H](CCC(=O)O)C(=O)O)cc3)nc2c(=O)[nH]1	inactive
O=C(O)c1cc(N=Nc2ccc(S(=O)(=O)Nc3ccccn3)cc2)ccc1O	inactive
O=P(OC(CCl)CCl)(OC(CCl)CCl)OC(CCl)CCl	active
CCCCCCCCO	inactive
CC(C)=CCC/C(C)=C/CO	inactive
CCCCCCCCCCCCCCCO	inactive
CC1=CC(=O)CC(C)(C)C1	inactive
CN(C)c1ccc(N=NS(=O)(=O)O)cc1	inactive
Cc1ccc(S(=O)(=O)O)cc1C	inactive
NC(=O)NO	inactive
C[C@](N)(Cc1ccc(O)c(O)c1)C(=O)O	inactive
CC(=O)OCCC(C)C	inactive
CC(C)=CCC/C(C)=C\CO	inactive
COC(=O)c1c(Cl)c(Cl)c(C(=O)OC)c(Cl)c1Cl	inactive
O=C(O)CC(O)C(=O)O (stereo unspecified)	inactive
COc1ccc(-n2nc(C(F)F)cc2-c2ccc(S(C)=O)cc2)cc1 (stereo unspecified)	inactive
CC[C@H]1CC[C@H](NCc2cc3c(cc2OC)[C@H]2C[C@H]2C(=O)N3C)[C@H](c2ccccc2)N1	inactive
CCn1nc(Cc2ccccc2)cc1C1CCN(C[C@H]2C[C@H](N(C)[C@@H](C(=O)O)C(C)C)C[C@@H]2c2cccc(F)c2)CC1	inactive
CNS(=O)(=O)c1cc(C(=O)N2CCC(CCN3C4CCC3CC(n3c(C)nc5ccccc53)C4)(c3cccc(F)c3)CC2)c(Cl)cc1F (stereo unspecified)	active
CC[C@H](C)C(=O)O[C@H]1C[C@@H](C)C=C2C=C[C@H](C)[C@H](CC[C@@H]3C[C@@H](O)CC(=O)O3)[C@H]21	active
O=C(O)c1cccc(N(Cc2cccnc2)c2ccc(OC(F)F)c(OC(F)F)c2)c1	inactive
C=CCCCCCCCCC(=O)O	inactive
CCC(C)(C)C(=O)O[C@H]1C[C@@H](C)C=C2C=C[C@H](C)[C@H](CC[C@@H]3C[C@@H](O)CC(=O)O3)[C@H]21	active
Oc1ccc2c(c1)-c1ccccc1C2	inactive
O=C1CCCCCN1	inactive
COc1cccc(-c2ccc(/C=C\CN3CCCCCC3)cc2Cl)c1	active
Fc1ccccc1[C@@H](F)COC1CCC(Nc2ncnc3[nH]ncc23)CC1 (stereo partly specified)	inactive
O=C(O)CCN(C1(C(=O)NO)CCCC1)S(=O)(=O)c1ccc(Oc2ccc(F)cc2)cc1	inactive
CC(C)CCO	inactive
CC(C)CC(C)(O)C#CC(C)(O)CC(C)C (stereo unspecified)	inactive

All figures here come from PubChem BioAssay (EPA / NIEHS).
